- System: Hep3B
- test-method-notes: Cellular activity test (Cell titer-Glo), Hep3B
- Assay type: cell-based
- conditions-used: Homo sapiens, hepatocellular carcinoma cell with abnormal FGFR, 72 h, read-out: Inhibitory activity against cells (IC50) Hep3B
IC50 less than 70 nM is Fulfilled; IC50 greater than or equal to 70 nM is Not fulfilled.

compound | group
C=CC(=O)N1C[C@@H](Nc2ncc3cc(-c4c(Cl)c(OC)cc(OC)c4Cl)ccc3n2)C[C@H]1CO | Fulfilled
C=CC(=O)N1C[C@@H](Nc2ncc3cc(-c4c(Cl)c(OC)cc(OC)c4Cl)ccc3n2)C[C@@H]1CO | Fulfilled
C=CC(=O)N1CC[C@H](Nc2ncc3cc(-c4c(Cl)c(OC)cc(OC)c4Cl)ccc3n2)C1 | Not fulfilled
C=CC(=O)N1C[C@@H](Nc2ncc3cc(-c4c(Cl)c(OC)cc(OC)c4Cl)ccc3n2)C[C@H]1CNS(C)(=O)=O | Not fulfilled
C=CC(=O)N1CC2(CC(Nc3ncc4cc(-c5c(Cl)c(OC)cc(OC)c5Cl)ccc4n3)C2)C1 | Fulfilled
C=CC(=O)N1C[C@@H](Nc2ncc3cc(-c4c(Cl)c(OC)cc(OC)c4Cl)ccc3n2)C[C@H]1CF | Fulfilled
C=CC(=O)N1C[C@@H](Nc2ncc3cc(-c4c(Cl)c(OC)cc(OC)c4Cl)ccc3n2)C[C@H]1C(=O)N1CCC1 | Not fulfilled
C=CC(=O)N1C[C@@H](Nc2ncc3cc(-c4c(Cl)c(OC)cc(OC)c4Cl)ccc3n2)C[C@H]1CC#N | Not fulfilled
C=CC(=O)N1C[C@@H](C)[C@H](Nc2ncc3cc(-c4c(Cl)c(OC)cc(OC)c4Cl)ccc3n2)C1 | Fulfilled
C=CC(=O)N1C[C@@H](Nc2ncc3cc(-c4c(Cl)c(OC)cc(OC)c4Cl)ccc3n2)C[C@H]1CNC(C)=O | Not fulfilled
C=CC(=O)N1C[C@@H](Nc2ncc3cc(-c4c(Cl)c(OC)cc(OC)c4Cl)ccc3n2)C[C@H]1C(C)(C)O (stereo in doubt) | Fulfilled
C=CC(=O)N1C[C@@H](Nc2ncc3cc(-c4c(Cl)c(OC)cc(OC)c4Cl)ccc3n2)C[C@H]1C(=O)N(C)C | Not fulfilled

###

- Tested on: SNU-16
- test-method-notes: Cellular activity test (Cell titer-Glo), SNU-16
- Assay type: cell-based
- conditions-used: Homo sapiens, SNU-16, gastric cancer cell with abnormal FGFR, 72 h, read-out: Inhibitory activity against cells (IC50) SNU-16
molecules and their reported IC50
quantity: IC50 (nM)

query-smiles | quantity | numeric-result
C=CC(=O)N1C[C@@H](Nc2ncc3cc(-c4c(Cl)c(OC)cc(OC)c4Cl)ccc3n2)C[C@@H]1CO | IC50 | 22
C=CC(=O)N1CC2(CC(Nc3ncc4cc(-c5c(Cl)c(OC)cc(OC)c5Cl)ccc4n3)C2)C1 | IC50 | 92
C=CC(=O)N1C[C@@H](Nc2ncc3cc(-c4c(Cl)c(OC)cc(OC)c4Cl)ccc3n2)C[C@H]1CF | IC50 | 48
C=CC(=O)N1C[C@@H](Nc2ncc3cc(-c4c(Cl)c(OC)cc(OC)c4Cl)ccc3n2)C[C@H]1CO | IC50 | 11
